Below, each entry is listed with its recorded apparent KD of K4 kissing-loop reporter.
- Tested on: K4 kissing-loop RNA reporter;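 also: bound reporter read as fluorescence of individual clusters on recovered sequencing chips by microscopy, with normalized cluster intensities fitted with a binding model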
- Measurement description: apparent KD of K4 kissing-loop reporter; higher = weaker reporter binding
- Condition context: Eterna round: R107; input ligand: FMN 200 uM

[
  {
    "Seq string": "CCAUCGCUAUUCGAUACCAGUCAUCAAAUCUUUGGUUUGAUAAAGGAGUGAUGUUCCCAAGACCCUUGGCAGCGAAUAGUGAUGG [Theophylline B K4 10]",
    "apparent KD of K4 kissing-loop reporter [nM]": 252
  },
  {
    "Seq string": "AAGUGAUGUUGUAGUGAUGUUGUGAUGUUGCAGGAUAUAUAGUGAUGUAGAAGGGUAUGUACAGAUUUUUUUUUUGAGUGAUGAU [ffdcmullin]",
    "apparent KD of K4 kissing-loop reporter [nM]": 83.4
  },
  {
    "Seq string": "AAACGCUGGAUGAAUAACAUCUAGCGAAUUCGAGGACCGGUACGGCCGCCACUCGAGCUAACUGCGAGUGAUGUUCGAUAAUAAA [Mat - Mod of OpenEnded 3 - D1]",
    "apparent KD of K4 kissing-loop reporter [nM]": 306
  }
]
